test: Oral bioavailability in Beagle dog at 3 mg/kg, administered as single dose; assay type: ADME, organism-based, Canis lupus familiaris; conditions: in vivo
property_label: bioavailability (%)
Write the answer as a number in %, unit excluded.

Data request: Recorded bioavailability for C1=N/C2=N/c3ccc(OCCN4CCCC4)c(c3)COC/C=C/COCc3cccc(c3)C(=C1)N2 (mixture of isomers) [PACRITINIB] , please?
Data returned: 24

---

target: Cyclin-dependent kinase 2/cyclin A (Homo sapiens, UniProt P24941); assay: Inhibition of recombinant CDK2/Cyclin A using RbinG as substrate after 2 hrs by luminescence assay
property_label: pIC50
Note on units: pIC50 is unitless, being -log10 of a concentration expressed in mol/L.

O=C1CCCN1CCOc1ccc2cc1COCC=CCOCc1cccc(c1)-c1ccnc(n1)N2 (mixture of isomers)
5.03

Shift focus to the following entry.
Data request: Which measured pIC50 value corresponds to C1=CCOCc2cccc(c2)-c2ccnc(n2)Nc2cc(cc(OCCN3CCOCC3)c2)COC1 (mixture of isomers) ?
Data returned: 5.57

---

Molecular target: Receptor-type tyrosine-protein kinase FLT3 (Homo sapiens, UniProt P36888)
Sequence (P36888 whole entry): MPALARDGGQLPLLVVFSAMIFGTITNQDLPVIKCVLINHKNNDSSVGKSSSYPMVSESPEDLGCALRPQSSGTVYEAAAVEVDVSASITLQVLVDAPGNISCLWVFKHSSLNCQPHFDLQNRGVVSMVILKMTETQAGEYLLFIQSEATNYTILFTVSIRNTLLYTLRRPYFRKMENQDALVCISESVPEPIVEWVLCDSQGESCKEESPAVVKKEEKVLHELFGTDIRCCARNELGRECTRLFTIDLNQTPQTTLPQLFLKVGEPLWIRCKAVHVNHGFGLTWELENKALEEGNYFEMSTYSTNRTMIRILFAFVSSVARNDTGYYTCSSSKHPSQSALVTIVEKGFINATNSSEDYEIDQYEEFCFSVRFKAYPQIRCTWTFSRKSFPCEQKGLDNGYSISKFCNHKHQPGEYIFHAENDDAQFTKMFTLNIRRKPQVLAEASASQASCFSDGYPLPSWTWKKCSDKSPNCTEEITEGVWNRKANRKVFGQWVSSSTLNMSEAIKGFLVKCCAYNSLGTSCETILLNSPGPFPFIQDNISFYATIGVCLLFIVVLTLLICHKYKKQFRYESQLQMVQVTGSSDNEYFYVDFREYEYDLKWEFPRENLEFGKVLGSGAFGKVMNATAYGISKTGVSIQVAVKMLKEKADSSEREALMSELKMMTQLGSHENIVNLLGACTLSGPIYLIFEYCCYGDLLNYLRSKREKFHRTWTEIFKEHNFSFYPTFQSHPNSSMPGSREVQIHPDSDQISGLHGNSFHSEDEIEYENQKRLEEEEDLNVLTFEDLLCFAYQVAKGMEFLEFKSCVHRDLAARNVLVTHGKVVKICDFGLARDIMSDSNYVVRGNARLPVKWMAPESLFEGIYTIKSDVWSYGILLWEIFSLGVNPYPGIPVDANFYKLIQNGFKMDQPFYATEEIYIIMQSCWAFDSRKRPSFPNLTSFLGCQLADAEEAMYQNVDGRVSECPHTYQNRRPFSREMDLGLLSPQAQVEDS
Assay: Inhibition of recombinant FLT3 using Poly (Glu,Tyr) as substrate after 2 hrs by luminescence assay
property_label: IC50

Cc1cnc2nc1-c1cccc(c1)COCC=CCOCc1cc(ccc1OCCN1CCCC1)N2
19 nM
ClCCOc1ccc2cc1COCC=CCOCc1cccc(c1)-c1ccnc(n1)N2 (mixture of isomers)
76 nM
CCN(CC)CCC(=O)Nc1cc2cc(c1)Nc1nccc(n1)-c1cccc(c1)COCC=CCOC2 (mixture of isomers)
78 nM
CC(=O)N1CCN(c2ccc3cc2COCC=CCOCc2cccc(c2)-c2ccnc(n2)N3)CC1 (mixture of isomers)
38 nM

Switching to the query record.
Data request: # IC50 lookup, item Nc1cc2cc(c1)Nc1nccc(n1)-c1cccc(c1)COCC=CCOC2 (mixture of isomers)
Data returned: 52 nM

---

experiment: in vitro; conditions: human, liver microsomes
Description: Half life in human liver microsomes at 5 uM by LC/MS/MS analysis
The entries below are paired with their reported half-life at 5 µM.

Please review the following examples before continuing.
CCN(CC)CCOc1ccc2cc1COCC=CCOCc1cccc(c1)-c1ccnc(n1)N2 (mixture of isomers)
0.733 h
Cc1cnc2nc1-c1cccc(c1)COCC=CCOCc1cc(ccc1OCCN1CCCC1)N2
> 1 h
COc1ccc2cc1COCC=CCOCc1cc(ccc1OCCN1CCCC1)Nc1nccc-2n1 (mixture of isomers)
> 1 h

Proceed to the following item.
Data request: Entry under review: C1=CCOCc2cc(ccc2OCCN2CCCCC2)Nc2nccc(n2)-c2cccc(c2)COC1 (mixture of isomers) . Reported half-life at 5 µM?
Data returned: > 1 h

---

molecular target: Tyrosine-protein kinase JAK3 (Homo sapiens, UniProt P52333); assay: Inhibition of recombinant JAK3 using Poly (Glu,Ala,Tyr) as substrate after 2 hrs by luminescence assay
Sequence (P52333 whole entry): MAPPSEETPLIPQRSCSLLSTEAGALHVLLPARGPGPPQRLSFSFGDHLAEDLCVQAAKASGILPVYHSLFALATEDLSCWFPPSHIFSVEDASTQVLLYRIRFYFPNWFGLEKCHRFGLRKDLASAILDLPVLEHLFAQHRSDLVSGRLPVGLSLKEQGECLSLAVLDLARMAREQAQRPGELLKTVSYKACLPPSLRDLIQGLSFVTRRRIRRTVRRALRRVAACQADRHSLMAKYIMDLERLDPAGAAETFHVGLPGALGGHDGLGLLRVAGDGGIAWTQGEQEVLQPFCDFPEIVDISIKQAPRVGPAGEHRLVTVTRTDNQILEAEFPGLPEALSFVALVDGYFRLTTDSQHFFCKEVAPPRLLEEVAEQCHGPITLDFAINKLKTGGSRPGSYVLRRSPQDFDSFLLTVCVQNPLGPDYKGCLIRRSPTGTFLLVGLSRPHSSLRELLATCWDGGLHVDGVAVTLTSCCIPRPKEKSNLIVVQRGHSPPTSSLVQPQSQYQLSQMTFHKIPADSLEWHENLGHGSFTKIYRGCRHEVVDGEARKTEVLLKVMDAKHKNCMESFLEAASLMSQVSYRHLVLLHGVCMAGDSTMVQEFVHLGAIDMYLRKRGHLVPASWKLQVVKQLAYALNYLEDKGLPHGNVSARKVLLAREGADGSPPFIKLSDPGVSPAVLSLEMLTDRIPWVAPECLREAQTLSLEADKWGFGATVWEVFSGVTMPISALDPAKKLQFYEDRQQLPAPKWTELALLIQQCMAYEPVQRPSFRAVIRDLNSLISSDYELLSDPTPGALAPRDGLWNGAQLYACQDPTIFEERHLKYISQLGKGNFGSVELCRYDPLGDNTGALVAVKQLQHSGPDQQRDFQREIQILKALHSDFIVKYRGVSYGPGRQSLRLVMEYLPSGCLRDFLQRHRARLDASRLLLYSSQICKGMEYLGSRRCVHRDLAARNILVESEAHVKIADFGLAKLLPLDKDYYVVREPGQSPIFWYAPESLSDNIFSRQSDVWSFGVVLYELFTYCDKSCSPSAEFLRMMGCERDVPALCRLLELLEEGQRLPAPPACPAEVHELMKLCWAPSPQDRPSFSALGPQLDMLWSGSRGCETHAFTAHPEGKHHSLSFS
property_label: pIC50
The quantity pIC50 is defined as the negative base-10 logarithm of the molar concentration.

CC(=O)N1CCN(c2ccc3cc2COCC=CCOCc2cccc(c2)-c2ccnc(n2)N3)CC1 (mixture of isomers)
5.22
OCCN1CCN(c2ccc3cc2COCC=CCOCc2cccc(c2)-c2ccnc(n2)N3)CC1
5.60
Fc1cnc2nc1-c1cccc(c1)COCC=CCOCc1cc(ccc1OCCN1CCCC1)N2 (mixture of isomers)
6.00

Data request: Recorded pIC50 for C1=CCOCc2cccc(c2)-c2ccnc(n2)Nc2cc(cc(OCCN3CCCC3)c2)COC1 (mixture of isomers) , please?
Data returned: 6.08

---

Listed next: entries and their corresponding pIC50.
target: Non-receptor tyrosine-protein kinase TYK2 (Homo sapiens); test: Inhibition of recombinant TYK2
Sequence (P29597 whole entry): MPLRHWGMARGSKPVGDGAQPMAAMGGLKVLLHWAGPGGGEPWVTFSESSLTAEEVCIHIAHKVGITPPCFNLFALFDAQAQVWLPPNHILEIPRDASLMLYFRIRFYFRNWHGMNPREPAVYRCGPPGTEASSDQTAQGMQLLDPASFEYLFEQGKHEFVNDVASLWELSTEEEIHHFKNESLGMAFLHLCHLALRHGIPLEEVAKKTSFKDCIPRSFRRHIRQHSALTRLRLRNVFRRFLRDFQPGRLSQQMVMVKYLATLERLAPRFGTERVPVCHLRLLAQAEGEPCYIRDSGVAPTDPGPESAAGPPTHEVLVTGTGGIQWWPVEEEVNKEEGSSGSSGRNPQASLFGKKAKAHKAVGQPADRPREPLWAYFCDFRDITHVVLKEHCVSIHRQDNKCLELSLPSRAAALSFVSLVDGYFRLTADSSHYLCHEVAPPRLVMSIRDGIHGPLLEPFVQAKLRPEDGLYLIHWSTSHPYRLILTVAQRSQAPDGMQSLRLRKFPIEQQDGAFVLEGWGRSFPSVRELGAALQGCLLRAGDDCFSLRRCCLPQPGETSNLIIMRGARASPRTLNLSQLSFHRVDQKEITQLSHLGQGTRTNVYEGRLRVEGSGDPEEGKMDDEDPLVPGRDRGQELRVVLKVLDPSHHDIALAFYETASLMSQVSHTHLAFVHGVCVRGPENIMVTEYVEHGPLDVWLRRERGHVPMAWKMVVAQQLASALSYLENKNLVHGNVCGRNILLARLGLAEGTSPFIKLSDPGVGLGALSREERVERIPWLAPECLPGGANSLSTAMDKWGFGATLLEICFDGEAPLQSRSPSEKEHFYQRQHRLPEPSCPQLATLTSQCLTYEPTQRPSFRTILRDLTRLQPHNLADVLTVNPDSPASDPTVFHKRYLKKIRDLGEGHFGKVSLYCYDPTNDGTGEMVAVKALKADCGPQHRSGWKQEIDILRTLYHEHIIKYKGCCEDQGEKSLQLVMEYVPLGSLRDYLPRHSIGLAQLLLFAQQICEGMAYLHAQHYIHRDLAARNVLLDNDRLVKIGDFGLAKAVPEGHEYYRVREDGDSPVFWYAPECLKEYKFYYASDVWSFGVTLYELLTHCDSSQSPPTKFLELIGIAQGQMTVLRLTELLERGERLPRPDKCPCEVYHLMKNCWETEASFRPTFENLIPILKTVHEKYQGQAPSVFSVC
Kindly note that pIC50 refers to -log10 of the concentration in mol/L and answer with the value alone.

CCN(CC)CCC(=O)Nc1cc2cc(c1)Nc1nccc(n1)-c1cccc(c1)COCC=CCOC2 (mixture of isomers)
7.74
COc1ccc2cc1-c1ccnc(n1)Nc1ccc(OCCN3CCCC3)c(c1)COCC=CCOC2
6.21
COc1ccc2cc1COCC=CCOCc1cccc(c1)-c1ccnc(n1)N2 (mixture of isomers)
6.68
CN1CCN(c2ccc3cc2COCC=CCOCc2cccc(c2)-c2ccnc(n2)N3)CC1 (mixture of isomers)
6.72

Data request: Given the compound ClCCOc1ccc2cc1COCC=CCOCc1cccc(c1)-c1ccnc(n1)N2 (mixture of isomers) , what is its reported pIC50?
Data returned: 6.33

Data request: Please do the same for C1=CCOCc2cc(ccc2N2CCNCC2)Nc2nccc(n2)-c2cccc(c2)COC1 (mixture of isomers) as well.
Data returned: 6.85

Data request: // repeat for COc1cc2cc(c1OCCN1CCCC1)COCC=CCOCc1cccc(c1)-c1ccnc(n1)N2 (mixture of isomers) and report
Data returned: 6.77

---

experiment: physchem; conditions: phosphate buffer saline, pH 7
Description: Solubility of the compound in phosphate buffer saline at pH 7
Property: solubility; scope: individual molecules
The reply should contain only the number, in µg/mL.

Example molecules with recorded solubility:
C1=CCOCc2cccc(c2)-c2ccnc(n2)Nc2cc(cc(OCCN3CCCC3)c2)COC1 (mixture of isomers)
145
CN1CCN(c2ccc3cc2COCC=CCOCc2cccc(c2)-c2ccnc(n2)N3)CC1 (mixture of isomers)
26.4

Now for the molecule whose solubility we want.
Data request: Which solubility reading was recorded for the molecule Nc1cc2cc(c1)Nc1nccc(n1)-c1cccc(c1)COCC=CCOC2 (mixture of isomers) ?
Data returned: 25

---

biological target: Receptor-type tyrosine-protein kinase FLT3 (Homo sapiens, UniProt P36888); test: Inhibition of recombinant FLT3 using Poly (Glu,Tyr) as substrate after 2 hrs by luminescence assay
property_label: pIC50
Entry type: numeric. Quantity: pIC50, the -log10 of concentration in molar units.

Data request: Entry COc1ccc2cc1COCC=CCOCc1cccc(c1)-c1ccnc(n1)N2 (mixture of isomers) : reported pIC50 = ?
Data returned: 6.72

Data request: Request: COc1cc2cc(c1OCCN1CCCC1)COCC=CCOCc1cccc(c1)-c1ccnc(n1)N2 (mixture of isomers)
Data returned: 8.22

Data request: Fc1cnc2nc1-c1cccc(c1)COCC=CCOCc1cc(ccc1OCCN1CCCC1)N2 (mixture of isomers) , same question.
Data returned: 7.82

Data request: Proceed to CCS(=O)(=O)N1CCN(c2ccc3cc2COCC=CCOCc2cccc(c2)-c2ccnc(n2)N3)CC1 (mixture of isomers)
Data returned: 6.82

Data request: Would you mind doing Oc1ccc2cc1COCC=CCOCc1cccc(c1)-c1ccnc(n1)N2 (mixture of isomers) as well?
Data returned: 6.77

---

assay: physchem; settings: phosphate buffer saline, pH 7
property_label: solubility (µg/mL)
Supply the numeric figure in µg/mL, leaving out any unit text.

C1=CCOCc2cccc(c2)-c2ccnc(n2)Nc2cc(cc(OCCN3CCOCC3)c2)COC1 (mixture of isomers)
40
CCN(CC)CCOc1ccc2cc1COCC=CCOCc1cccc(c1)-c1ccnc(n1)N2 (mixture of isomers)
147
Fc1cc2cc(c1)-c1ccnc(n1)Nc1ccc(OCCN3CCCC3)c(c1)COCC=CCOC2 (mixture of isomers)
2.61
CN(C)CCN(C)c1ccc2cc1COCC=CCOCc1cccc(c1)-c1ccnc(n1)N2 (mixture of isomers)
171

Please examine the following record next.
Data request: Entry COc1ccc2cc1COCC=CCOCc1cc(ccc1OCCN1CCCC1)Nc1nccc-2n1 (mixture of isomers) has what solubility?
Data returned: 60.8
